# Tested on: ORYSAT (Rice, Tebonnet)
# measurement-protocol: Preemergence herbicidal evaluation
# Format: in vivo, Oryza sativa, (L.) Tebonnet
# condition-label: rate 0.1250 kg/ha; rated 4-5 weeks after treatment; rating scale 0-9
measurement-label: Preemergence herbicidal rating ORYSAT
One number for each entry.

Sample answers from the record:
Cc1ccc(CN2C(=O)CSC2=Nc2cc(-n3c(=O)cc(C(F)(F)F)n(C)c3=O)c(F)cc2Cl)cc1C : 0.0
Cn1c(C(F)(F)F)cc(=O)n(-c2cc(N=C3SCC(=O)N3Cc3ccc(S(N)(=O)=O)cc3)c(Cl)cc2F)c1=O : 1.0
CSCCN1C(=O)CSC1=Nc1cc(-n2c(=O)cc(C(F)(F)F)n(C)c2=O)c(F)cc1Cl : 0.0
Cn1c(C(F)(F)F)cc(=O)n(-c2cc(N=C3SCC(=O)N3Cc3ccccc3Cl)c(Cl)cc2F)c1=O : 0.0

Pending compound:
I have this compound here, `COc1ccc(CN2C(=O)CSC2=Nc2cc(-n3c(=O)cc(C(F)(F)F)n(C)c3=O)c(F)cc2Cl)cc1OC` , and I need its recorded Preemergence herbicidal rating ORYSAT.
0.0
